- assayed.system: cell surface receptors in membranes prepared from SH-SY5Y cells
- protocol: radioligand saturation binding on SH-SY5Y cell membranes, filtration, nonlinear regression; upper end of printed range
experimental.endpoint: Kd (nM)
Number in nM, nothing else.

Exercise: Query: Kd; subject: [3H][Dmt1]DALDA (2',6'-Dmt-D-Arg-Phe-Lys-NH2, tritiated) (peptide)
Key: 0.149

* * *

- assayed.system: cell surface receptors in membranes prepared from SH-SY5Y cells
- protocol: radioligand saturation binding on SH-SY5Y cell membranes, filtration, nonlinear regression; lower end of range
experimental.endpoint: pKd
API: returns pKd as number; meaning -log10 of concentration in mol/L.

Exercise: Query: pKd; subject: [3H][Dmt1]DALDA (2',6'-Dmt-D-Arg-Phe-Lys-NH2, tritiated) (peptide)
Key: 10.06
